FYI, the data here is from the supplement of paper PMC10567573.

B1: TRIM39 (parent)
chain: CKACITRWWEDLERDFPCPVCRKT

variants of: B1; assay: protein stability index of a GFP-peptide fusion (GPS, HEK-293T) (PSI 1-6); higher = more stable; conditions: c terminus: a fixed tail appended;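 further: lentivirally expressed fusions sorted by FACS into six bins by GFP to DsRed ratio, PSI derived from sequencing read proportions per bin multiplied by bin number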
assay_endpoint: protein stability index
Answers are plain numbers.

Example entries begin here.
CKACITRWWEDLERDFPCPVCIKT [R22I] = 3.62
CKACITRWWEDLEADFPCPVCRKT [R14A] = 4.19
CKACITRWWEDLERDFPCPVCKKT [R22K] = 3.47

For each of the variants below, state protein stability index.
1. CKACITRWWEDPERDFPCPVCRKT [L12P]
2. CKACSTRWWEDLERDFPCPVCRKT [I5S]
3. CKACITRWWEDIERDFPCPVCRKT [L12I]
4. CKACITRWWEDLERDFPCPVCRKV [T24V]
5. TKACITRWWEDLERDFPCPVCRKT [C1T]
6. CKACITRWWEDLFRDFPCPVCRKT [E13F]

A.
1. 4.06
2. 4.22
3. 3.71
4. 3.57
5. 2.06
6. 3.37

For each of the variants below, state protein stability index.
1. CKACITRWWEDLERDFPCPVCRLT [K23L]
2. CKACITRWWEDLERDFPCPVCRKS [T24S]
3. CKACITRWWEDLERDFLCPVCRKT [P17L]
4. CKACITRWWEDLERDFPYPVCRKT [C18Y]
5. CKACITRWWEDLWRDFPCPVCRKT [E13W]
6. CKPCITRWWEDLERDFPCPVCRKT [A3P]

A.
[2.96, 4.03, 3.85, 2.02, 2.92, 2.48]
